meta.source: PubChem BioAssay (EPA / NIEHS)

# Read-out: Interleukin-8 (IL8), CXCL8 (gene 3576)
# protocol-text: BSK_hDFCGF_IL8: BioMAP Diversity Plus: hDFCGF Assay for Interleukin-8 (IL8) Biomarker Activity (AID 2283058)
# test-settings: primary human foreskin fibroblasts; actives raise or lower the signal
Activity calls are given as the source filed them. Rule for the calls: active = hit-call score of the fitted dose curve at least 0.9, where 1 is the maximum; inactive = score below 0.9.
Classes used: yes = active, no = inactive

molecule="CCc1cccc(C)c1N(C(=O)CCl)C(C)COC (stereo not drawn)" group=no
molecule=CN(C)[C@@H]1C(=O)C(C(N)=O)=C(O)[C@@]2(O)C(=O)C3=C(O)c4c(O)cccc4[C@@](C)(O)[C@H]3[C@H](O)[C@@H]12 group=no
molecule=CSC1=N[C@@](C)(c2ccccc2)C(=O)N1Nc1ccccc1 group=no
molecule=CCOC(=O)COc1cc(-c2nn(C)c(OC(F)F)c2Cl)c(F)cc1Cl group=no
molecule=Cc1nn(-c2cc(NS(C)(=O)=O)c(Cl)cc2Cl)c(=O)n1C(F)F group=no
molecule=C[N+]1(C)CCCCC1 group=no
molecule=N#CSCSC#N group=yes
molecule=CN(C)C(=O)Nc1cccc(C(F)(F)F)c1 group=no
